- procedure-text: Half life in C57BL/6 mouse at 3 mg/kg, iv
- Type: ADME, organism-based
- assay-context: in vivo
parameter: half-life
Write the numeric value and append its unit.

Challenge: Tell me the measured half-life of CC(c1ccc(-c2cnc3c(-c4ccc(S(N)(=O)=O)c5ccccc45)cnn3c2)cc1)N1CCCC1 (stereo unspecified) , please.
Response given: 210 min

---

- procedure-text: AUC (0 to infinity) in C57BL/6 mouse at 3 mg/kg, iv
- Format: ADME, organism-based
- Set-up: dose 3 mg/kg, time infinity, route intravenous
- assay-context: in vivo
parameter: AUC(0-inf)
Give your result as the value with the unit written after it.

Challenge: I am curious: what AUC(0-inf) value has been reported for CC(c1ccc(-c2cnc3c(-c4ccc(S(N)(=O)=O)c5ccccc45)cnn3c2)cc1)N1CCCC1 (stereo unspecified) ?
Response given: 3220 ng·h/mL
